target: T1, His-tagged P3028 (human, also: His-tag, terminus and sequence not given here); test: PEPSCAN chip ELISA, His-P3028 in solution;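 note: score is the raw OD at 405 nm from peroxidase colour with ABTS, imaged by CCD camera before and after staining, with wells showing air bubbles set to zero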
T1 construct: in solution at 0.5 ug/mL over the peptide cards; found with anti-His-tag antibody and rabbit anti-mouse peroxidase (rampo); also called PGE73; not shown: His-tag
T1 peptide: VFDEFKPLVEEPQNLIK
No end group written: not given here.
Items are presented alongside their recorded RAMPO Score.
Please reply with the bare figure in rampo score and do not write the unit itself.

Some solved cases for reference:
KKLDTFFVKLSLATER [SEQ ID NO 361] ... 525
KKLDTFFVRLSLFTER [SEQ ID NO 331] ... 374
KKLDTFFVKLSGFTER [SEQ ID NO 431] ... 370

Please find the next binder below.
Q: Bench note: what RAMPO Score did KKLDTFEVKLSLFTER [SEQ ID NO 424] show?
A: 381
